# Assay System: BRM (Homo sapiens, UniProt P51531)
# Construct: made in house; host or cells: High Five insect cells
# Sequence (P51531 whole entry): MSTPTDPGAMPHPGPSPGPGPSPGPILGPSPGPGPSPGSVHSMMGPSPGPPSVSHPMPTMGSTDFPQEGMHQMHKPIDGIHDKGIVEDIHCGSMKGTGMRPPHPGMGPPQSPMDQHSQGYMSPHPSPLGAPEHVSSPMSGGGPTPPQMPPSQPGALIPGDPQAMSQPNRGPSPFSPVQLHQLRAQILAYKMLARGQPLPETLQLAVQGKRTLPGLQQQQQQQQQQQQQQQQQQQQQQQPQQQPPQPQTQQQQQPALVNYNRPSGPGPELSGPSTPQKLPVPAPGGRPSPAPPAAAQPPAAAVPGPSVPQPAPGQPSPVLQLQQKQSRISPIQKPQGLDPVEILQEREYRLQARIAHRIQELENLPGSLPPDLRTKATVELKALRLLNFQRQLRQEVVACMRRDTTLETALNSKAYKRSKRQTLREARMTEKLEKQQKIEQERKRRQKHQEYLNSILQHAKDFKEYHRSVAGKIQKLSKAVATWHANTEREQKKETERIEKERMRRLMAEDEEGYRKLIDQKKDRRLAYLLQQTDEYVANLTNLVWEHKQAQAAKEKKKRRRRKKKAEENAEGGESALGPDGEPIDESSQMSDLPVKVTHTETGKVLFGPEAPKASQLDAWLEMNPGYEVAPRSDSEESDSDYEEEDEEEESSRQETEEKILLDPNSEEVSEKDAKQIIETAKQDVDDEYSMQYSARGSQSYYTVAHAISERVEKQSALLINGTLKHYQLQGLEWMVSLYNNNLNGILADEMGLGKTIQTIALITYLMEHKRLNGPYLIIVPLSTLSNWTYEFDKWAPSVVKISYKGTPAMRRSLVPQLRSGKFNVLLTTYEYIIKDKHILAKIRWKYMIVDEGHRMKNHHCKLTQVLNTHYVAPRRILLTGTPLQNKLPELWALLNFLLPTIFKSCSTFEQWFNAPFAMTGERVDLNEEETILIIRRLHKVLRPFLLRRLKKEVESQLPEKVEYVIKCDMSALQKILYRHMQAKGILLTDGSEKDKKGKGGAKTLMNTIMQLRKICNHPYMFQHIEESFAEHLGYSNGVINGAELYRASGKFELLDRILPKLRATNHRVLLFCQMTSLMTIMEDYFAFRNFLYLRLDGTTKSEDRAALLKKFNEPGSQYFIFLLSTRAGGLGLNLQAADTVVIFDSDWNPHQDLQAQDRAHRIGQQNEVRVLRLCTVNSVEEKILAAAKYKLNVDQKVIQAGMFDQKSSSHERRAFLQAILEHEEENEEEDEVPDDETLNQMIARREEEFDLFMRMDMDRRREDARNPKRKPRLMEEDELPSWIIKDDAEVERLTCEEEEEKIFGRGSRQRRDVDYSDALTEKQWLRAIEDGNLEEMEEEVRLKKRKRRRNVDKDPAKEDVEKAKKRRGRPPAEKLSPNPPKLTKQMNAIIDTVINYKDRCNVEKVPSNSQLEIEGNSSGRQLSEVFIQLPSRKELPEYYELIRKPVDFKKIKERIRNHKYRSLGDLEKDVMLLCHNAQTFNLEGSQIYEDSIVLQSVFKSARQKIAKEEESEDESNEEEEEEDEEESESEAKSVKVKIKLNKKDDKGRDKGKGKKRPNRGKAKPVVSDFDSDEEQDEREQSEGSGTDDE
# Protocol Text: ATPase catalytic activity of BRM, ADP-Glo in vitro biochemical assay
# Assay Setup: ATPase catalytic activity, ADP-Glo; 30 nM BRM, 400 μM ATP
Metric Name: pIC50
Would you please state pIC50, meaning minus log10 of the concentration in mol/L, as a bare number?

These recorded examples may help you get a feel for the data.
- CC1COCc2ccc(C(=O)NCc3cc4nc(N5CCOc6cccnc65)ccc4cn3)cc2S1(=O)=O (stereo not shown): 7.94
- CCOc1nc(-c2ccc3cnc(CNC(=O)c4ccc5c(c4)S(=O)(=O)CCOC5)cc3n2)ccc1C: 8.00
- CC1CN(c2cccc(-c3ccc4cnc(CNC(=O)c5ccc6c(c5)S(=O)(=O)C(C)CN6C)cc4n3)n2)CC(C)O1 (stereo not shown) [Compound 498]: 7.58

Please look at the following molecule next.
Exam item: Data request, read-out pIC50, for C[C@H]1CN(c2cccc(-c3ccc4cnc(CNC(=O)c5ccc(Cl)c(S(C)(=O)=O)c5)cc4n3)n2)CC[C@@H]1O
Marked response: 8.27

---

Recorded pIC50, one value per entry.
# Assay System: BRG-1 (Homo sapiens)
# Construct: made in house; host or cells: High Five insect cells
# Sequence (P51532 whole entry): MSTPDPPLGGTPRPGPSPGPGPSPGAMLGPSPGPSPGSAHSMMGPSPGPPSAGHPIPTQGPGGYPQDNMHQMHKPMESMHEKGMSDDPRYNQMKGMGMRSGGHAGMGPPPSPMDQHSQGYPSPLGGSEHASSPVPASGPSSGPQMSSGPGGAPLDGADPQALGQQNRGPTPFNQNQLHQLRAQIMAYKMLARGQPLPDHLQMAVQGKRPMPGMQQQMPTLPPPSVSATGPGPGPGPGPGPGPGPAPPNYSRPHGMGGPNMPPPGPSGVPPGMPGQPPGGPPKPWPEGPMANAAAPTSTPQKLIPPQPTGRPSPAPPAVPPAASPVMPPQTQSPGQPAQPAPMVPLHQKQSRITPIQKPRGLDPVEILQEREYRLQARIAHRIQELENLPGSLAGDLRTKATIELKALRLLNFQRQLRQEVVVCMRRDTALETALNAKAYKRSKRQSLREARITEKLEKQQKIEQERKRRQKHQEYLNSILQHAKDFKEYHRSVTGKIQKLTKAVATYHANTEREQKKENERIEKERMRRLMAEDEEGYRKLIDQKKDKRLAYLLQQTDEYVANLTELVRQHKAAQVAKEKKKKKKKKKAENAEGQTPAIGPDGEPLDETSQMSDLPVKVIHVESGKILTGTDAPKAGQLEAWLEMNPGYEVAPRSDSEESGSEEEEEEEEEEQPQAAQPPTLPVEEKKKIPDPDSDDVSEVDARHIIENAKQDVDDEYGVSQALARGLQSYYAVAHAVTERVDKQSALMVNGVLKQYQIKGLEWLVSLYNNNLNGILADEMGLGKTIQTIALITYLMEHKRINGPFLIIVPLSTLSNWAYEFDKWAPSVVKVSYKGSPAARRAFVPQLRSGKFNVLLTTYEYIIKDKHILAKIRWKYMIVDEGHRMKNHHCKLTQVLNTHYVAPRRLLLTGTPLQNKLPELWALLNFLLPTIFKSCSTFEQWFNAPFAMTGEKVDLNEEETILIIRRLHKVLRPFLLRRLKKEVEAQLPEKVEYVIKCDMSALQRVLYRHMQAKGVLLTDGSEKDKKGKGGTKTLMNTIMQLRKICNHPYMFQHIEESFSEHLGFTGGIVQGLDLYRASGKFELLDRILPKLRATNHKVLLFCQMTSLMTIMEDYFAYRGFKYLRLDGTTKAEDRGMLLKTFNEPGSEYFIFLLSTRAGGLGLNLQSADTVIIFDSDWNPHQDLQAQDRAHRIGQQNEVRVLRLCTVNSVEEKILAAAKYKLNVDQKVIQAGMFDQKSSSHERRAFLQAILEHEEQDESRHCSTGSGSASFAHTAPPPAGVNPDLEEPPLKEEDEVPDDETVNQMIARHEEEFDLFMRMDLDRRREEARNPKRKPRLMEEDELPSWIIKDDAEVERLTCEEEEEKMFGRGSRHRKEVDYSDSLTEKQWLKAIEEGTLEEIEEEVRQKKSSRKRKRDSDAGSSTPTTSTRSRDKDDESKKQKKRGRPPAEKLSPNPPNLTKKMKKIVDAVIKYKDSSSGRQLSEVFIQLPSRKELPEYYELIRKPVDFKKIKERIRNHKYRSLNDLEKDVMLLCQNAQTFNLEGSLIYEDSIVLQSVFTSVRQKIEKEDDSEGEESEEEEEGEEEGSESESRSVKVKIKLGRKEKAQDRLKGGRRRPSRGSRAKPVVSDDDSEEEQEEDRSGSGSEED
# Protocol Text: ATPase catalytic activity of BRG-1, ADP-Glo in vitro biochemical assay
# Assay Setup: ADP-Glo ATPase assay, 30 nM BRG-1, 400 μM ATP; read-out: BRG1 IC50
Would you please state pIC50, meaning minus log10 of the concentration in mol/L, as a bare number?

These recorded examples may help you get a feel for the data.
• C[C@H]1COCCN1c1cccc(-c2ccc3cnc(CNC(=O)c4ccc5c(c4)S(=O)(=O)CCOC5)cc3n2)n1 = 5.86
• O=C(NCc1cc2nc(-c3cccc(C4(F)CCC4)n3)ccc2cn1)c1ccc2c(c1)S(=O)(=O)CCOC2 = 5.67
• O=C(NCc1cc2nc(-c3cccc(OCC(F)F)n3)ccc2cn1)c1ccc2c(c1)S(=O)(=O)CCOC2 = 6.08

Exam item: Data request, read-out pIC50, for O=C(NCc1cc2nc(N3CCOc4cc(Cl)cc(F)c43)ccc2cn1)c1cc(F)c2c(c1)S(=O)(=O)CCOC2
Marked response: 5.93

Exam item: Data request, read-out pIC50, for CO[C@H](C)c1cccc(-c2ccc3cnc(CNC(=O)c4ccc5c(c4)S(=O)(=O)CCOC5)cc3n2)n1
Marked response: 5.31

Exam item: Data request, read-out pIC50, for CCOc1cccc(-c2ccc3cnc(CNC(=O)c4cc(F)c5c(c4)S(=O)(=O)CCOC5)cc3n2)n1
Marked response: 6.34

---

# Assay System: BRM (Homo sapiens)
# Construct: made in house; host or cells: High Five insect cells
# Protocol Text: ATPase catalytic activity of BRM, ADP-Glo in vitro biochemical assay
# Assay Setup: ATPase catalytic activity, ADP-Glo; 30 nM BRM, 400 μM ATP
Recorded IC50, one value per entry.
Only the number, expressed in nM, is required.

These recorded examples may help you get a feel for the data.
- C[C@@H]1CN(c2cccc(-c3ccc4cnc(CNC(=O)c5ccc6c(c5)S(=O)(=O)CC[C@H](C(F)F)O6)cc4n3)n2)C[C@H](C)O1 [Compound 582]: 1240
- CO[C@@H]1C[C@@H]1N(C)c1cccc(-c2ccc3cnc(CNC(=O)c4ccc5c(c4)S(=O)(=O)[C@@H](C)COC5)cc3n2)n1 [Compound 668]: 8.4
- O=C(NCc1cc2nc(-c3cccc(N4CC(C5COC5)C4)n3)ccc2cn1)c1ccc2c(c1)S(=O)(=O)CCOC2 [Compound 604]: 5.7
- C[C@@H]1CN(c2cccc(-c3ccc4cnc(CNC(=O)c5ccc6c(c5)S(=O)(=O)CC[C@H](C)O6)cc4n3)n2)C[C@H](C)O1 [Compound 418]: 13.6
- C[C@@H]1CN(c2cccc(-c3ccc4cnc(CNC(=O)c5ccc(CC(C)(F)F)c(S(C)(=O)=O)c5)cc4n3)n2)C[C@H](C)O1 [Compound 474]: 230
- C[C@@H]1CN(c2cccc(-c3ccc4cnc(CNC(=O)c5ccc6c(c5)S(=O)(=O)CC[C@H]6C)cc4n3)n2)C[C@H](C)O1 [Compound 490]: 56.1
- CCO[C@H]1CCS(=O)(=O)c2cc(C(=O)NCc3cc4nc(-c5cccc(N6C[C@@H](C)O[C@@H](C)C6)n5)ccc4cn3)ccc2C1 [Compound 482]: 23.1
- Cc1cc2c(nc1C)N(c1ccc3cnc(CNC(=O)c4ccc5c(c4)S(=O)(=O)CCOC5)cc3n1)CCC2 [Compound 463]: 7.8

Exam item: Data request, read-out IC50, for CCOc1cc(C)cc(-c2ccc3cnc(CNC(=O)c4ccc5c(c4)S(=O)(=O)[C@@H](C)COC5)cc3n2)n1 [Compound 417]
Marked response: 253

Exam item: Data request, read-out IC50, for COc1ccnc2c1CCCN2c1ccc2cnc(CNC(=O)c3ccc4c(c3)S(=O)(=O)CCOC4)cc2n1 [Compound 439]
Marked response: 4.4

Exam item: Data request, read-out IC50, for C[C@@H]1CCS(=O)(=O)c2cc(C(=O)NCc3cc4nc(-c5cccc(N6C[C@@H](C)O[C@@H](C)C6)n5)ccc4cn3)cc(F)c2O1 [Compound 494]
Marked response: 22.4

Exam item: Data request, read-out IC50, for Cc1cnc2c(n1)CCCN2c1ccc2cnc(CNC(=O)c3ccc4c(c3)S(=O)(=O)CCOC4)cc2n1 [Compound 440]
Marked response: 32.3

Exam item: Data request, read-out IC50, for O=C(NCc1cc2nc(N3CCCc4ccc(C(F)(F)F)cc43)ccc2cn1)c1ccc2c(c1)S(=O)(=O)CCOC2 [Compound 525]
Marked response: 25.1
